# TARGET_UNDER_TEST: human adenosine A2A receptor (Homo sapiens, UniProt P29274)
# Construct: expressed in transfected cells; host or cells: CHO cells, Semliki Forest virus expression system; membrane preparation
# Sequence (P29274 whole entry): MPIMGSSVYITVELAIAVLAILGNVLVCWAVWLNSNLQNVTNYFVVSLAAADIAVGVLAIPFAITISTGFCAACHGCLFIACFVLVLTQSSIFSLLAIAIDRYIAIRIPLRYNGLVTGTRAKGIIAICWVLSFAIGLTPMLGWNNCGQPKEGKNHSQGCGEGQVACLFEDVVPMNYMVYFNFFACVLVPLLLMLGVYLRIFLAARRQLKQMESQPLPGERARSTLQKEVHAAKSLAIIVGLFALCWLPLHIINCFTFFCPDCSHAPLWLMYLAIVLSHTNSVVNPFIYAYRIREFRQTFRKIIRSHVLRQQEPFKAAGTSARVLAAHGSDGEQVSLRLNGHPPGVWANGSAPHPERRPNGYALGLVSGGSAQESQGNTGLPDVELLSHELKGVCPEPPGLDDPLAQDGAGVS
# ASSAY_NOTES: [3H]-SCH-58261 binding assay, human adenosine A2A receptor
# TEST_PARAMETERS: [3H]-SCH-58261 1 nM; membranes of CHO cells expressing the recombinant receptor; Ki by Cheng-Prussoff; read-out: hA2 (pKi) (converted)
MEASURED_METRIC: Ki (nM)

Prompt line: Determine from records and report Ki for COc1ccc(N2CCOCC2)c2sc(NC(=O)OCC(C)C)nc12
Response line: 25.1

Prompt line: Given the molecule COc1ccc(C2CCOCC2)c2sc(NC(=O)OCC3CCCO3)nc12 (stereo not drawn) , write its reported Ki.
Response line: 12.6

Prompt line: Give a short answer stating reported Ki for COc1ccc(N2CCOCC2)c2sc(NC(=O)OC3CCOCC3)nc12 .
Response line: 7.94

Prompt line: Complete the entry with Ki for COc1ccc(C2CCOCC2)c2sc(NC(=O)O[C@H]3CCOC3)nc12
Response line: 3.98

Prompt line: In one line, give reported Ki of the entry COc1ccc(N2CCOCC2)c2sc(NC(=O)OC3CC4CC3CC4O)nc12 (racemic) .
Response line: 3.98

[A] COc1ccc(N2CCOCC2)c2sc(NC(=O)OC3CCC(O)C3)nc12 (mixture of isomers)
[B] COc1ccc(N2CCOCC2)c2sc(NC(=O)OC3CCCCC3)nc12
Prompt line: Exercise: compare A and B ; which one has the greater Ki? Lab log: write the label of the selected item as the result.
Response line: A
(A: 15.8 nM, B: 7.94 nM)

[a] COc1ccc(N2CCOCC2)c2sc(NC(=O)O[C@@H]3CCOC3)nc12
[b] COc1ccc(N2CCOCC2)c2sc(NC(=O)O[C@H]3CC[C@@H](O)CC3)nc12
Prompt line: In terms of reported Ki, does a or b have the smaller number? Select an item and report its label.
Response line: b
(b: 10 nM, a: 25.1 nM)
